System: HeLa cells
Experiment: MTS cell proliferation and/or cytotoxicity assay
Format: cell-based, Human
Details: Homo sapiens, HeLa, 72 h, concentration at which 50% of antiproliferative cell response is seen; 3 days incubation; read-out: MTS Data Hella
pIC50: −log10 of the molar value.

{"compound": "CN1CCN(CCCNC(=O)c2cn3c4c(c(N5CCC(NC(=O)OC(C)(C)C)C5)c(F)cc4c2=O)Oc2cc4c(cc2-3)oc2ccccc24)CC1 (stereo not drawn)", "pIC50": 6.43}
{"compound": "CN(C)CCCCNc1c(F)cc2c(=O)c(C(=O)NCCCn3ccnc3)cn3c2c1Oc1cc2c(cc1-3)oc1ccccc12", "pIC50": 5.51}
{"compound": "O=C(NCCCN1CCOCC1)c1cn2c3c(c(N4CC5CCCNC5C4)c(F)cc3c1=O)Oc1cc3ccccc3cc1-2 (stereo not drawn)", "pIC50": 7.00}

====

System: HeLa cells
Assay: MTS cell proliferation and/or cytotoxicity assay
Type: cell-based, Human
Settings: Homo sapiens, HeLa, 72 h, concentration at which 50% of antiproliferative cell response is seen; 3 days incubation; read-out: MTS Data Hella
Please use Met for IC50 under 3 µM and Not met for everything else, ties included.

{"molecule": "O=C(NCCN1CCCC1)c1cn2c3c(c(N4CCC(c5cnccn5)C4)ccc3c1=O)Oc1ccccc1-2 (stereo not shown) [compound 30]", "label class": "Met"}
{"molecule": "N[C@@H]1CCN(c2c(F)cc3c(=O)c(C(=O)NCCN4CCOCC4)cn4c3c2Oc2cc3ccccc3cc2-4)C1 [compound 390]", "label class": "Met"}
{"molecule": "CN(C)CCCCNC(=O)c1cn2c3cc4c(cc3oc3c(NCCN5CCCC5)c(F)cc(c1=O)c32)c(=O)c1ccccc14 [compound 584]", "label class": "Met"}
{"molecule": "CN1CCCC1CCNC(=O)c1cn2c3cc4oc5cc([N+](=O)[O-])ccc5[nH]c4cc3oc3c(NCCC4CCCN4C)c(F)cc(c1=O)c32 (stereo not shown) [compound 572]", "label class": "Not met"}
{"molecule": "CN1CCCC1CCNC(=O)c1cn2c3c(c(NCCCN4CCCC4=O)c(F)cc3c1=O)Oc1cc3ccccc3cc1-2 (stereo not shown) [compound 102]", "label class": "Met"}
{"molecule": "CN(C)CCCCNC(=O)c1cn2c3c(c(N4CC[C@@H](NC(=O)CCN5CCCC5)C4)c(F)cc3c1=O)Oc1cc3c(cc1-2)oc1ccccc13 [compound 510]", "label class": "Not met"}
{"molecule": "N[C@H]1CCN(c2c(F)cc3c(=O)c(C(=O)NCCCN4CCOCC4)cn4c5cc6c(cc5oc2c34)c(=O)c2ccccc26)C1 [compound 511]", "label class": "Not met"}
{"molecule": "O=C(CN1CCCC1)N[C@@H]1CCN(c2c(F)cc3c(=O)c(C(=O)NCCN4CCCC4)cn4c3c2Oc2cc3c(cc2-4)oc2ccccc23)C1 [compound 506]", "label class": "Not met"}
{"molecule": "CC(C)(C)OC(=O)N[C@H]1CCN(c2c(F)cc3c(=O)c(C(=O)O)cn4c5cc6oc7cc([N+](=O)[O-])ccc7[nH]c6cc5oc2c34)C1 [compound 24]", "label class": "Not met"}
{"molecule": "N[C@@H]1CCN(c2c(F)cc3c(=O)c(C(=O)NCCN4CCCC4)cn4c3c2Oc2cc3ccccc3cc2-4)C1 [compound 565]", "label class": "Met"}
{"molecule": "O=C(CCN1CCCC1)N[C@@H]1CCN(c2c(F)cc3c(=O)c(C(=O)NCCN4CCOCC4)cn4c3c2Oc2cc3c(cc2-4)oc2ccccc23)C1 [compound 504]", "label class": "Not met"}
{"molecule": "CN(C)CCCCNC(=O)c1cn2c3c(c(N4CC[C@@H](NC(=O)CCNCCCn5ccnc5)C4)c(F)cc3c1=O)Oc1cc3c(cc1-2)oc1ccccc13 [compound 500]", "label class": "Not met"}
{"molecule": "CN1CCCC1CCNc1c(F)cc2c(=O)c(C(=O)NCCN3CCCC3)cn3c4cc5oc6cc([N+](=O)[O-])ccc6[nH]c5cc4oc1c23 (stereo not shown) [compound 571]", "label class": "Not met"}

====

Biological target: c-Myc template DNA (c-myc quadruplex)
Experiment: Quadruplex binding / stop assay (Taq polymerase arrest, capillary electrophoresis)
Details: read-out: Stop Data c-Myc μM; concentration at which 50% of the DNA was arrested (arrested:full-length 1:1)
A collection of compounds and their measured IC50

{"compound": "NC1CCN(c2c(F)cc3c(=O)c(C(=O)NN4CCCCC4)cn4c3c2Oc2cc3ccccc3cc2-4)C1 (stereo not shown) [compound 244]", "IC50": "1.75 µM"}
{"compound": "CCN(CC)CCCC(C)NC(=O)c1cn2c3c(c(N4CCC(c5cnccn5)C4)ccc3c1=O)Oc1cc3ccccc3cc1-2 (stereo not shown) [compound 309]", "IC50": "1 µM"}
{"compound": "CN1CCCC1CCNC(=O)c1cn2c3cc4c(cc3oc3c(NCCC5CCCN5C)c(F)cc(c1=O)c32)c(=O)c1ccccc14 (stereo not shown) [compound 514]", "IC50": "0.375 µM"}
{"compound": "N=C(N)NCCNC(=O)c1cn2c3c(c(N4CC5CCCNC5C4)c(F)cc3c1=O)Oc1cc3ccccc3cc1-2 (stereo not shown) [compound 471]", "IC50": "0.64 µM"}

====

Assay: Pharmacokinetic/toxicokinetic evaluation in dogs
Format: in vivo, beagle dogs
Conditions: male, beagle, dog, plasma, iv, 1.2 mg/kg, male, 1.2 mg/kg IV infusion, Dose 1, read-out: Mean AUC(0-24)

{"compound": "CN1CCCC1CCNC(=O)c1cn2c3c(c(N4CCC(c5cnccn5)C4)c(F)cc3c1=O)Oc1cc3ccccc3cc1-2 (stereo not shown) [CX-3543]", "uom": "ng·h/mL", "AUC(0-t)": 314}

====

Target: c-Myc template DNA (c-myc quadruplex)
Experiment: Quadruplex binding / stop assay (Taq polymerase arrest, capillary electrophoresis)
Conditions: read-out: Stop Data c-Myc μM; concentration at which 50% of the DNA was arrested (arrested:full-length 1:1)

{"compound": "CC(C)NCCCNC(=O)c1cn2c3c(c(N4CCC(NC(=O)OC(C)(C)C)C4)c(F)cc3c1=O)Oc1cc3ccccc3cc1-2 (stereo not shown) [compound 312]", "uom": "µM", "IC50": 1}
{"compound": "CN(C)/C=N/CCCCNC(=O)c1cn2c3c(c(N4CC[C@@H](NC(=O)OC(C)(C)C)C4)c(F)cc3c1=O)Oc1cc3ccccc3cc1-2 [compound 212]", "uom": "µM", "IC50": 1.75}
{"compound": "CC1(C)CC(NC(=O)c2cn3c4c(c(N5CCC(N)C5)c(F)cc4c2=O)Oc2cc4ccccc4cc2-3)CC(C)(C)N1 (stereo not shown) [compound 444]", "uom": "µM", "IC50": 0.75}
{"compound": "CCN(CC)CCCC(C)NC(=O)c1cn2c3c(c(N4CCC(c5cnccn5)C4)c(F)cc3c1=O)Oc1cc3ccccc3cc1-2 (stereo not shown) [compound 27]", "uom": "µM", "IC50": 3}
{"compound": "N[C@@H]1CCN(c2c(F)cc3c(=O)c(C(=O)N4CCOCC4)cn4c3c2Oc2c-4ccc3ccccc23)C1 [compound 79]", "uom": "µM", "IC50": 2.5}
{"compound": "O=C(NCCN1CCCC1)c1cn2c3c(c(NCC4CCCO4)c(F)cc3c1=O)Oc1cc3ccccc3cc1-2 (stereo not shown) [compound 31]", "uom": "µM", "IC50": 3}
{"compound": "CN(C)CCCCNC(=O)c1cn2c3c(c(NCCCN4CCOCC4)c(F)cc3c1=O)Oc1cc3ccccc3cc1-2 [compound 52]", "uom": "µM", "IC50": 2.5}

====

The reader will find reported pIC50 values listed item by item below.
Target: c-Myc template DNA (c-myc quadruplex)
Test: Quadruplex binding / stop assay (Taq polymerase arrest, capillary electrophoresis)
Details: read-out: S DATA; Table 1D, stop assay data
pIC50: −log10 of the molar value.

{"molecule": "N=C(N)NCCCNC(=O)c1cn2c3c(c(NCCN4CCCC4)c(F)cc3c1=O)Oc1cc3ccccc3cc1-2 [compound 1654]", "bound type": "=", "pIC50": 6.00}
{"molecule": "CC(C)N1CCN(c2c(F)cc3c(=O)c(C(=O)NCCCN4CCOCC4)cn4c3c2Oc2ccc(Cl)cc2-4)CC1 [compound 1791]", "bound type": "<", "pIC50": 4.82}
{"molecule": "CN1CCCC1CCNc1ccc2c(=O)c(C(=O)NCCCN3CCOCC3)cn3c2c1Oc1cc2ccccc2cc1-3 (centres unmarked) [compound 1524]", "bound type": "=", "pIC50": 5.76}
{"molecule": "CN1CCCC1CCNC(=O)c1cn2c3c(c(NCCCCCCO)c(F)cc3c1=O)Oc1cc3ccccc3cc1-2 (centres unmarked) [compound 1675]", "bound type": "<", "pIC50": 4.82}
{"molecule": "CC(C)C(=O)N1CCN(c2c(F)cc3c(=O)c(C(=O)NCCN4CCCC4)cn4c3c2Oc2cc(Cl)ccc2-4)CC1 [compound 1823]", "bound type": "=", "pIC50": 5.00}
{"molecule": "CN1CCCC1CCNC(=O)c1cn2c3c(c(N4C[C@@H](N)[C@H](c5ccccc5)C4)c(F)cc3c1=O)Oc1cc3ccccc3cc1-2 (some centres unmarked) [compound 1618]", "bound type": "=", "pIC50": 6.12}
{"molecule": "O=C(NCCN1CCCC1)c1cn2c3c(c(NCCN4CCOCC4)c(F)cc3c1=O)Oc1cc(Cl)ccc1-2 [compound 1814]", "bound type": "=", "pIC50": 5.14}
{"molecule": "CC1(C)CC(NC(=O)c2cn3c4c(c(N5CCC(NC(=O)OC(C)(C)C)C5)c(F)cc4c2=O)Oc2ccccc2-3)CC(C)(C)N1 (centres unmarked) [compound 1591]", "bound type": "<", "pIC50": 4.82}
{"molecule": "CN1CCC(N(C)c2c(F)cc3c(=O)c(C(=O)NCCC4CCCN4C)cn4c3c2Oc2cc3ccccc3cc2-4)CC1 (centres unmarked) [compound 1486]", "bound type": "=", "pIC50": 5.76}
{"molecule": "CN1CCCC1CCNC(=O)c1cn2c3c(c(NCCCNC(=O)OC(C)(C)C)c(F)cc3c1=O)Oc1cc(Cl)ccc1-2 (centres unmarked) [compound 1808]", "bound type": "<", "pIC50": 4.82}
{"molecule": "CCN(CC)CCCCNC(=O)c1cn2c3c(c(N4CCC(N)C4)c(F)cc3c1=O)Oc1ccc(Cl)cc1-2 (centres unmarked) [compound 1803]", "bound type": "=", "pIC50": 5.52}
{"molecule": "CN1CCCC1CCNC(=O)c1cn2c3c(c(NCCCNC(=O)OC(C)(C)C)c(F)cc3c1=O)Oc1cc3ccccc3cc1-2 (centres unmarked) [compound 1689]", "bound type": "=", "pIC50": 5.76}
{"molecule": "CN1CCCC1CCNC(=O)c1cn2c3c(c(N4CCC(N5CCCCC5)CC4)c(F)cc3c1=O)Oc1cc3ccccc3cc1-2 (centres unmarked) [compound 1483]", "bound type": "=", "pIC50": 5.76}
{"molecule": "O=C(NCCN1CCCC1)c1cn2c3c(c(N4CC5CCCNC5C4)ccc3c1=O)Oc1ccccc1-2 (centres unmarked) [compound 1731]", "bound type": "<", "pIC50": 4.82}
